Biological target: T1, DD(E) DD(E) (Homo sapiens, UniProt P02671)
T1 chain 1: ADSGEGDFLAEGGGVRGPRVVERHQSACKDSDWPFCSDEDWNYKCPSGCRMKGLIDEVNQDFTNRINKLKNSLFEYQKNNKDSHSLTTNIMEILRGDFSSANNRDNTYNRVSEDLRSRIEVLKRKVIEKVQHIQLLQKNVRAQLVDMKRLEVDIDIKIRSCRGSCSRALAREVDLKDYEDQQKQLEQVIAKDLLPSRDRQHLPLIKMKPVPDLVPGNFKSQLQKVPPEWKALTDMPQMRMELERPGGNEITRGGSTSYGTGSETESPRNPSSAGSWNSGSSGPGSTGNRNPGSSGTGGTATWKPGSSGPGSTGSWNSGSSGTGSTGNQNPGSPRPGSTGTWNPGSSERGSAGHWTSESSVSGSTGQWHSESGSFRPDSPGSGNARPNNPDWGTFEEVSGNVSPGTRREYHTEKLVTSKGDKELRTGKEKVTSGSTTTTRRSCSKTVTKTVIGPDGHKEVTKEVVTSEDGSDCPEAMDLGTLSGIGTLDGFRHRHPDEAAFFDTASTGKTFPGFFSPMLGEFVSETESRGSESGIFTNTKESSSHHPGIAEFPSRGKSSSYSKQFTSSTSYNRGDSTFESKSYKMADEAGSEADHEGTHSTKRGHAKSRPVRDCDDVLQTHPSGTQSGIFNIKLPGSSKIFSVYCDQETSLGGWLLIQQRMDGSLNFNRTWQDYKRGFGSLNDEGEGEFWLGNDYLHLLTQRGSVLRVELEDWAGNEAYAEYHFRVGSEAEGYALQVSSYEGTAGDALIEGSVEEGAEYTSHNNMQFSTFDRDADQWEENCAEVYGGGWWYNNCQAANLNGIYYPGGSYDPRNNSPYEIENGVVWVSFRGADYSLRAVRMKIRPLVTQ
T1 chain 2: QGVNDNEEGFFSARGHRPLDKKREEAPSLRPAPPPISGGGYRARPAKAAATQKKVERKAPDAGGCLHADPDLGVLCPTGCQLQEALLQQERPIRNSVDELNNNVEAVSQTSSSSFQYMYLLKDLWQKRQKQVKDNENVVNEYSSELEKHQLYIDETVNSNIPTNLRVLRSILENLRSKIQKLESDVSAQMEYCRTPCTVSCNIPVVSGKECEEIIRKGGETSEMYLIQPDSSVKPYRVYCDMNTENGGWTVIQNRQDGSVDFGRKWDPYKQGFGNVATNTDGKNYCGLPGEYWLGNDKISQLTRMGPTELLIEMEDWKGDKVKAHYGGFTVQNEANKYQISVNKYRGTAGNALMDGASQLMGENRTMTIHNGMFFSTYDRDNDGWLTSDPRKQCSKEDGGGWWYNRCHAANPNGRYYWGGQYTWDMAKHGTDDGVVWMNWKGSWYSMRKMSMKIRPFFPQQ
T1 chain 3: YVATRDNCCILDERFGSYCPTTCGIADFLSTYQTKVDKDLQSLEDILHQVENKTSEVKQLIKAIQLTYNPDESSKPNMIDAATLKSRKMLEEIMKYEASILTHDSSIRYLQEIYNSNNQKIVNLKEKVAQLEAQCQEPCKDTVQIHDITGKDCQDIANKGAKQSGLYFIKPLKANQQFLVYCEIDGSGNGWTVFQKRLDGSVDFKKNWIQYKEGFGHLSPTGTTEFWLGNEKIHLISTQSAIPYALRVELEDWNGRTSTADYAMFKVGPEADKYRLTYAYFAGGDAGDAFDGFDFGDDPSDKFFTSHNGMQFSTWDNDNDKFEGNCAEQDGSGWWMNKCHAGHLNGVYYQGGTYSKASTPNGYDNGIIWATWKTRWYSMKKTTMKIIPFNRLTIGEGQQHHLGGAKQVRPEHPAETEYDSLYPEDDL
Assay: fluorescence polarization
No end group written: not given here. fluorescein = Fluorescein label on the N-terminus, attached via Aca
MEASURED PARAMETER: pKd
Answer as the number alone; pKd is minus log10 of concentration in mol/L.

(Q) Bench note: what pKd did {fluorescein-Aca}-QWECPYGLCWIQ (cysteine pairing not given here) [Tn6-2b-Fl] show?
(A) 7.24
